Values compiled from PubChem BioAssay AID1963980.

Below: a set of entries, each annotated with reported pIC50.
test system: 475296-252-R-J1-PDC spheroid viability; test: Anticancer human tumor 475296-252-R-J1-PDC patient-derived rectal carcinoma cell line growth inhibition [PI3K]; details: curve of first compound; second compound 1 µM; spheroids with HUVEC and MSC
pIC50: −log10 of the molar value.
value-type: pIC50

molecule="CC(=O)c1c(C)c2cnc(Nc3ccc(N4CCNCC4)cn3)nc2n(C2CCCC2)c1=O + COc1c(OCCCN2CCOCC2)ccc2c3n(c(=NC(=O)c4cnc(N)nc4)nc12)CCN3" value_type=pIC50 result="< 7.00"
molecule="CCN1CCN(Cc2ccc(Nc3ncc(F)c(-c4cc(F)c5nc(C)n(C(C)C)c5c4)n3)nc2)CC1 + CC(Nc1ncnc2nc[nH]c12)c1cc2cccc(Cl)c2c(=O)n1-c1ccccc1" value_type=pIC50 result="< 6.00"
molecule="CNC(=O)c1ccc(N2C(=S)N(c3ccc(C#N)c(C(F)(F)F)c3)C(=O)C2(C)C)cc1F + CC(Nc1ccc2c(c1)OCCn1cc(N3C(=O)OCC3C(F)F)nc1-2)C(N)=O" value_type=pIC50 result="< 5.00"
molecule="Cn1cnc2c(F)c(Nc3ccc(Br)cc3Cl)c(C(=O)NOCCO)cc21 + CC(Nc1ncnc2nc[nH]c12)c1cc2cccc(Cl)c2c(=O)n1-c1ccccc1" value_type=pIC50 result=5.54
molecule="CCCS(=O)(=O)Nc1ccc(F)c(C(=O)c2c[nH]c3ncc(-c4ccc(Cl)cc4)cc23)c1F + COc1c(OCCCN2CCOCC2)ccc2c3n(c(=NC(=O)c4cnc(N)nc4)nc12)CCN3" value_type=pIC50 result="< 5.00"
molecule="C[C@@H](NC(=O)c1ncnc(N)c1Cl)c1ncc(C(=O)Nc2cc(C(F)(F)F)c(Cl)cn2)s1 + CC(Nc1ncnc2nc[nH]c12)c1cc2cccc(Cl)c2c(=O)n1-c1ccccc1" value_type=pIC50 result="< 5.00"
molecule="Cn1cnc2c(F)c(Nc3ccc(Br)cc3Cl)c(C(=O)NOCCO)cc21 + COc1c(OCCCN2CCOCC2)ccc2c3n(c(=NC(=O)c4cnc(N)nc4)nc12)CCN3" value_type=pIC50 result="> 8.02"
molecule="C=CC(=O)N1CCN(c2nc(=O)n(-c3c(C)ccnc3C(C)C)c3nc(-c4c(O)cccc4F)c(F)cc23)C(C)C1 (centres undefined) + COc1c(OCCCN2CCOCC2)ccc2c3n(c(=NC(=O)c4cnc(N)nc4)nc12)CCN3" value_type=pIC50 result="< 5.00"
molecule="CC(C)n1nc(-c2ccc3oc(N)nc3c2)c2c(N)ncnc21 + COc1c(OCCCN2CCOCC2)ccc2c3n(c(=NC(=O)c4cnc(N)nc4)nc12)CCN3" value_type=pIC50 result=7.46

====

test system: 475296-252-R-J1-PDC spheroid viability; test: Anticancer human tumor 475296-252-R-J1-PDC cell line growth inhibition [PI3K]; settings: curve of compound; spheroids with HUVEC and MSC;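 also: spheroids exposed to agents for seven days before readout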
pIC50: −log10 of the molar value.
value-type: pIC50

compound="CC(Cn1ccc(-c2ccc(C#N)c(Cl)c2)n1)NC(=O)c1cc(C(C)O)[nH]n1 (configuration not stated)" result="< 5.00"
compound=C[C@@H](NC(=O)c1ncnc(N)c1Cl)c1ncc(C(=O)Nc2cc(C(F)(F)F)c(Cl)cn2)s1 result="< 5.00"
compound=CCN1CCN(Cc2ccc(Nc3ncc(F)c(-c4cc(F)c5nc(C)n(C(C)C)c5c4)n3)nc2)CC1 result="< 6.00"
compound="Cn1nccc1Nc1nccc(-c2ccn(C(CO)c3ccc(Cl)c(F)c3)c(=O)c2)n1 (configuration not stated)" result="< 5.00"
compound=Cn1ncnc1[C@H]1c2n[nH]c(=O)c3cc(F)cc(c23)N[C@@H]1c1ccc(F)cc1 result="< 7.00"
compound=CC(C)n1nc(-c2ccc3oc(N)nc3c2)c2c(N)ncnc21 result="< 7.00"
compound="CC1(C)CCC(Nc2ncc(C(F)(F)F)c(-c3c[nH]c4c(P(C)(C)=O)c(C#N)ccc34)n2)CN1 (configuration not stated)" result="< 5.00"

====

tested on: 475296-252-R-J1-PDC spheroid viability; test: Anticancer human tumor 475296-252-R-J1-PDC cell line growth inhibition [PI3K]; conditions: second compound 3.16 µM; first compound 0.1 µM; stronger effect = lower value; spheroids with HUVEC and MSC;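 also: spheroids exposed to agents for seven days before readout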
value-type: viability, T/C (%)

compound="CC(Cn1ccc(-c2ccc(C#N)c(Cl)c2)n1)NC(=O)c1cc(C(C)O)[nH]n1 (centres undefined) + Cc1nc(NC(=O)N2CCCC2C(N)=O)sc1-c1ccnc(C(C)(C)C(F)(F)F)c1" value_type="viability, T/C" quantitative_readout=96.1
compound="CC1(C)CCC(Nc2ncc(C(F)(F)F)c(-c3c[nH]c4c(P(C)(C)=O)c(C#N)ccc34)n2)CN1 (centres undefined) + CC(Nc1ncnc2nc[nH]c12)c1cc2cccc(Cl)c2c(=O)n1-c1ccccc1" value_type="viability, T/C" quantitative_readout=86
compound="C#Cc1c(F)ccc2cc(O)cc(-c3ncc4c(N5CC6CCC(C5)N6)nc(OCC56CCCN5CC(F)C6)nc4c3F)c12 (centres undefined) + Cc1nc(NC(=O)N2CCCC2C(N)=O)sc1-c1ccnc(C(C)(C)C(F)(F)F)c1" value_type="viability, T/C" quantitative_readout=75.3
compound="CNC(=O)c1ccc(N2C(=S)N(c3ccc(C#N)c(C(F)(F)F)c3)C(=O)C2(C)C)cc1F + Cc1nc(NC(=O)N2CCCC2C(N)=O)sc1-c1ccnc(C(C)(C)C(F)(F)F)c1" value_type="viability, T/C" quantitative_readout=104
compound="C#Cc1c(F)ccc2cc(O)cc(-c3ncc4c(N5CC6CCC(C5)N6)nc(OCC56CCCN5CC(F)C6)nc4c3F)c12 (centres undefined) + CC(Nc1ncnc2nc[nH]c12)c1cc2cccc(Cl)c2c(=O)n1-c1ccccc1" value_type="viability, T/C" quantitative_readout=88.6
compound="CC(=O)c1c(C)c2cnc(Nc3ccc(N4CCNCC4)cn3)nc2n(C2CCCC2)c1=O + CC(Nc1ncnc2nc[nH]c12)c1cc2cccc(Cl)c2c(=O)n1-c1ccccc1" value_type="viability, T/C" quantitative_readout=104
compound="Cn1ncc(Cl)c1-c1cc(C(=O)NC(CN)Cc2cccc(F)c2)sc1Cl (centres undefined) + CC(Nc1ncnc2nc[nH]c12)c1cc2cccc(Cl)c2c(=O)n1-c1ccccc1" value_type="viability, T/C" quantitative_readout=80.4
compound="CCCS(=O)(=O)Nc1ccc(F)c(C(=O)c2c[nH]c3ncc(-c4ccc(Cl)cc4)cc23)c1F + CC(Nc1ncnc2nc[nH]c12)c1cc2cccc(Cl)c2c(=O)n1-c1ccccc1" value_type="viability, T/C" quantitative_readout=104
compound="CC(C)NCC(C(=O)N1CCN(c2ncnc3c2C(C)CC3O)CC1)c1ccc(Cl)cc1 (centres undefined) + CC(Nc1ncnc2nc[nH]c12)c1cc2cccc(Cl)c2c(=O)n1-c1ccccc1" value_type="viability, T/C" quantitative_readout=85.5

====

tested on: 475296-252-R-J1-PDC spheroid viability; assay: Anticancer human tumor 475296-252-R-J1-PDC cell line growth inhibition [PI3K]; details: second compound 0.0316 µM; first compound 0.1 µM; stronger effect = lower value; spheroids with HUVEC and MSC;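 also: spheroids exposed to agents for seven days before readout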
Below: a set of entries, each annotated with reported viability, T/C.
value-type: viability, T/C (%)

compound="CNC(=O)c1ccc(N2C(=S)N(c3ccc(C#N)c(C(F)(F)F)c3)C(=O)C2(C)C)cc1F + COc1c(OCCCN2CCOCC2)ccc2c3n(c(=NC(=O)c4cnc(N)nc4)nc12)CCN3" quantitative_readout=88.5
compound="C=CC(=O)N1CCN(c2nc(=O)n(-c3c(C)ccnc3C(C)C)c3nc(-c4c(O)cccc4F)c(F)cc23)C(C)C1 (centres undefined) + Cc1nc(NC(=O)N2CCCC2C(N)=O)sc1-c1ccnc(C(C)(C)C(F)(F)F)c1" quantitative_readout=79.2
compound="CNC(=O)c1ccc(N2C(=S)N(c3ccc(C#N)c(C(F)(F)F)c3)C(=O)C2(C)C)cc1F + Cc1nc(NC(=O)N2CCCC2C(N)=O)sc1-c1ccnc(C(C)(C)C(F)(F)F)c1" quantitative_readout=88.1
compound="CCN1CCN(Cc2ccc(Nc3ncc(F)c(-c4cc(F)c5nc(C)n(C(C)C)c5c4)n3)nc2)CC1 + Cc1nc(NC(=O)N2CCCC2C(N)=O)sc1-c1ccnc(C(C)(C)C(F)(F)F)c1" quantitative_readout=90

====

Tested on: 475296-252-R-J1-PDC spheroid viability
Test: Anticancer human tumor 475296-252-R-J1-PDC cell line growth inhibition [PI3K];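 also: spheroids exposed to agents for seven days before readout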
Conditions: second compound 1 µM; first compound 10 µM; stronger effect = lower value; spheroids with HUVEC and MSC
Source text: Combinatorial screen of targeted agents with the PI3K inhibitors inavolisib, alpelisib, duvelisib, and copanlisib in multi-cell type tumor spheroids A high-throughput screen of multi-cell type tumor spheroids was designed to identify active combinations of targeted small molecules and PI3K pathway inhibitors. […] Compounds. […] If the clinical Cmax for an agent had not been determined, the highest concentration tested was 10 microM. […]
Each record's viability, T/C is compared with low group (below 60%), middle group (60% to below 80%), high group (80% or more) to give its class.

molecule="Cn1ncc(Cl)c1-c1cc(C(=O)NC(CN)Cc2cccc(F)c2)sc1Cl (stereo not drawn) + CC(Nc1ncnc2nc[nH]c12)c1cc2cccc(Cl)c2c(=O)n1-c1ccccc1" assay_system="475296-252-R-J1-PDC spheroid viability" class_name="middle group"
molecule="C[C@@H](NC(=O)c1ncnc(N)c1Cl)c1ncc(C(=O)Nc2cc(C(F)(F)F)c(Cl)cn2)s1 + CC(Nc1ncnc2nc[nH]c12)c1cc2cccc(Cl)c2c(=O)n1-c1ccccc1" assay_system="475296-252-R-J1-PDC spheroid viability" class_name="middle group"
molecule="C#Cc1c(F)ccc2cc(O)cc(-c3ncc4c(N5CC6CCC(C5)N6)nc(OCC56CCCN5CC(F)C6)nc4c3F)c12 (stereo not drawn) + COc1c(OCCCN2CCOCC2)ccc2c3n(c(=NC(=O)c4cnc(N)nc4)nc12)CCN3" assay_system="475296-252-R-J1-PDC spheroid viability" class_name="low group"
molecule="C=CC(=O)N1CCN(c2nc(=O)n(-c3c(C)ccnc3C(C)C)c3nc(-c4c(O)cccc4F)c(F)cc23)C(C)C1 (stereo not drawn) + Cc1nc(NC(=O)N2CCCC2C(N)=O)sc1-c1ccnc(C(C)(C)C(F)(F)F)c1" assay_system="475296-252-R-J1-PDC spheroid viability" class_name="high group"
molecule="CC(C)NCC(C(=O)N1CCN(c2ncnc3c2C(C)CC3O)CC1)c1ccc(Cl)cc1 (stereo not drawn) + CC(Nc1ncnc2nc[nH]c12)c1cc2cccc(Cl)c2c(=O)n1-c1ccccc1" assay_system="475296-252-R-J1-PDC spheroid viability" class_name="middle group"
molecule="CC(Cn1ccc(-c2ccc(C#N)c(Cl)c2)n1)NC(=O)c1cc(C(C)O)[nH]n1 (stereo not drawn) + Cc1nc(NC(=O)N2CCCC2C(N)=O)sc1-c1ccnc(C(C)(C)C(F)(F)F)c1" assay_system="475296-252-R-J1-PDC spheroid viability" class_name="high group"
molecule="C#Cc1c(F)ccc2cc(O)cc(-c3ncc4c(N5CC6CCC(C5)N6)nc(OCC56CCCN5CC(F)C6)nc4c3F)c12 (stereo not drawn) + CC(Nc1ccc2c(c1)OCCn1cc(N3C(=O)OCC3C(F)F)nc1-2)C(N)=O" assay_system="475296-252-R-J1-PDC spheroid viability" class_name="low group"
molecule="CC(C)NCC(C(=O)N1CCN(c2ncnc3c2C(C)CC3O)CC1)c1ccc(Cl)cc1 (stereo not drawn) + COc1c(OCCCN2CCOCC2)ccc2c3n(c(=NC(=O)c4cnc(N)nc4)nc12)CCN3" assay_system="475296-252-R-J1-PDC spheroid viability" class_name="low group"
molecule="Cn1nccc1Nc1nccc(-c2ccn(C(CO)c3ccc(Cl)c(F)c3)c(=O)c2)n1 (stereo not drawn) + COc1c(OCCCN2CCOCC2)ccc2c3n(c(=NC(=O)c4cnc(N)nc4)nc12)CCN3" assay_system="475296-252-R-J1-PDC spheroid viability" class_name="low group"
molecule="CC(Cn1ccc(-c2ccc(C#N)c(Cl)c2)n1)NC(=O)c1cc(C(C)O)[nH]n1 (stereo not drawn) + CC(Nc1ncnc2nc[nH]c12)c1cc2cccc(Cl)c2c(=O)n1-c1ccccc1" assay_system="475296-252-R-J1-PDC spheroid viability" class_name="high group"
molecule="CNC(=O)c1ccc(N2C(=S)N(c3ccc(C#N)c(C(F)(F)F)c3)C(=O)C2(C)C)cc1F + Cc1nc(NC(=O)N2CCCC2C(N)=O)sc1-c1ccnc(C(C)(C)C(F)(F)F)c1" assay_system="475296-252-R-J1-PDC spheroid viability" class_name="high group"
molecule="CCCS(=O)(=O)Nc1ccc(F)c(C(=O)c2c[nH]c3ncc(-c4ccc(Cl)cc4)cc23)c1F + COc1c(OCCCN2CCOCC2)ccc2c3n(c(=NC(=O)c4cnc(N)nc4)nc12)CCN3" assay_system="475296-252-R-J1-PDC spheroid viability" class_name="low group"
